B1: glmS ribozyme (parent)
chain: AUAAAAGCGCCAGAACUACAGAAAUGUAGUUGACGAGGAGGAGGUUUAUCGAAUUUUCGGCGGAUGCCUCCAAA

- Variants of: B1
- procedure summary: self-cleavage kobs at 10000 uM GlcN6P; higher = faster cleavage; RNA array
- experimental context: with glucosamine-6-phosphate
Variants at the floor of the assay were thinned out.
Lab note: anything with self-cleavage kobs at 10000 uM GlcN6P at or over 0.0002 s⁻¹ counts as yes (1); the rest go in no (0).

[ask] Determine whether this variant has self-cleavage kobs at 10000 uM GlcN6P no lower than 0.0002 s⁻¹: A39U G40U
[reply] yes (1)

[ask] hey, is self-cleavage kobs at 10000 uM GlcN6P for this one >= 0.0002 s⁻¹? A6C G44C
[reply] no (0)

[ask] In plain terms: is recorded self-cleavage kobs at 10000 uM GlcN6P at least 0.0002 s⁻¹ for G38A G40U ?
[reply] no (0)

[ask] Item G40U U45A with self-cleavage kobs at 10000 uM GlcN6P of 0.0002 s⁻¹ or above?
[reply] yes (1)

[ask] self-cleavage kobs at 10000 uM GlcN6P >= 0.0002 s⁻¹ for C8G G63A ?
[reply] no (0)

[ask] Evaluate A48U A52C G60A A64C : self-cleavage kobs at 10000 uM GlcN6P at minimum 0.0002 s⁻¹?
[reply] no (0)

[ask] Quick check, self-cleavage kobs at 10000 uM GlcN6P >= 0.0002 s⁻¹? A33C U56G
[reply] no (0)

[ask] # bool: self-cleavage kobs at 10000 uM GlcN6P of A36C G41C C50U A64U C68A >= 0.0002 s⁻¹
[reply] no (0)

From: the supplement of paper PMC7125110
